- tgt: His-tagged recombinant human TrkA (Homo sapiens)
- Construct: 6HIS tagged cytoplasmic domain from Invitrogen, Catalog No. PV3144
- Sequence (P04629 440-796 limits assumed): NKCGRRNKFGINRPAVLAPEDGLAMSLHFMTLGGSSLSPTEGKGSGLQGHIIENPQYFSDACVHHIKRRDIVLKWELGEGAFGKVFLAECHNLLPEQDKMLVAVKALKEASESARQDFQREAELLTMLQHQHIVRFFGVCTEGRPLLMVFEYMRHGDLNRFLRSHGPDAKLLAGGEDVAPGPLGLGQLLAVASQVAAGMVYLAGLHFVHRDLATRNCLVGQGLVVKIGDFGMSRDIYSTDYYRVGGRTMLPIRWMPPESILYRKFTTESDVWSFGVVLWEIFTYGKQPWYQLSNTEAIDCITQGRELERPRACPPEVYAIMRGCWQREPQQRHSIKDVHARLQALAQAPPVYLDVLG
- assay-info: TrkA Kinase Binding Assay (LanthaScreen Eu)
- test-context: averaged IC50; TR-FRET binding, 60 min, 22° C.; read-out: TrkA Enzyme IC50
pIC50: −log10 of the molar value.
quantity-measured: pIC50

{"compound": "COCc1ccc(OC(F)(F)F)c(CNC(=O)Nc2c(C)c(OC[C@@H]3COCCN3C)nn2-c2ccccc2)c1", "pIC50": "> 7.00"}
{"compound": "COCc1ccc(OC(F)(F)F)c(CNC(=O)Nc2c(C)c(OCC3(F)CCNC3)nn2-c2ccccc2)c1 (centres unmarked)", "pIC50": "> 7.00"}
{"compound": "COCc1ccc(OC(F)(F)F)c(CNC(=O)Nc2c(C)c(OC3CCNCC3)nn2-c2ccccc2)c1", "pIC50": "> 7.00"}
{"compound": "COCc1ccc(C2CCC2)c(CNC(=O)Nc2c(C)c(=O)[nH]n2-c2ccccc2)c1", "pIC50": "> 7.00"}
{"compound": "O=C(Nc1c2c(nn1-c1ccccc1)CCC2)NC(Cc1ccccc1Cl)c1ccccc1 (centres unmarked)", "pIC50": "6.00 to 7.00"}

State the recorded pIC50 for this entry: COCc1ccc(OC(F)(F)F)c(CNC(=O)Nc2c(C)c(OCC3CNC3)nn2-c2ccccc2)c1 > 7.00

How about this compound: COCc1ccc(CNCC(F)(F)F)c(CNC(=O)Nc2c(C)c(-c3cnn(C)c3)nn2-c2ccccc2)c1 6.00 to 7.00

How about this compound: COCc1ccc(C2CCCC2)c(CNC(=O)Nc2c(C)c(-c3cnc(C)nc3)nn2-c2ccccc2)c1 > 7.00
